Data credit: paper doi:10.1101/2025.03.12.642038

System: T1, IRF4 DBD S114R (Homo sapiens, UniProt Q15306 20-132, S114R)
T1 sequence: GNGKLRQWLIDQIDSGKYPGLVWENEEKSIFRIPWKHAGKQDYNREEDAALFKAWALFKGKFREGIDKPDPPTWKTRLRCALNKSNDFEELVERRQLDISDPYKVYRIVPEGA
Protocol Summary: FP; FP: PBS + 0.05% Tween20, 5 nM DNA, 1 h, room temperature; SPR: Biacore S200, SA chip, protein 0.1-4500 nM, running buffer not given in material; errors are SD
Condition Label: protein: recombinant; tags: N-terminal His8-linker-His8-TEV, cleaved; label: 3' fluorescein (FAM); hairpin, TTTT loop
Value Kind: Kd (µM)
Answers are plain numbers, in µM.

Would you mind telling me what Kd value was observed for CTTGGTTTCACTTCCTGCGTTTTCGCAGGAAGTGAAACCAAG (structured_DNA) [IRE hairpin (FAM)] ?
0.332
